target: Human plasmin (Homo sapiens, UniProt P00747); construct: Human plasmin is purchased; purchased Boehringer Mannheim, Indianapolis, Ind; assay: Kass with plasmin, chromogenic substrate; format: biochemical; settings: substrate H-D-Val-Leu-Lys-p-nitroanilide
Sequence (P00747 97-810): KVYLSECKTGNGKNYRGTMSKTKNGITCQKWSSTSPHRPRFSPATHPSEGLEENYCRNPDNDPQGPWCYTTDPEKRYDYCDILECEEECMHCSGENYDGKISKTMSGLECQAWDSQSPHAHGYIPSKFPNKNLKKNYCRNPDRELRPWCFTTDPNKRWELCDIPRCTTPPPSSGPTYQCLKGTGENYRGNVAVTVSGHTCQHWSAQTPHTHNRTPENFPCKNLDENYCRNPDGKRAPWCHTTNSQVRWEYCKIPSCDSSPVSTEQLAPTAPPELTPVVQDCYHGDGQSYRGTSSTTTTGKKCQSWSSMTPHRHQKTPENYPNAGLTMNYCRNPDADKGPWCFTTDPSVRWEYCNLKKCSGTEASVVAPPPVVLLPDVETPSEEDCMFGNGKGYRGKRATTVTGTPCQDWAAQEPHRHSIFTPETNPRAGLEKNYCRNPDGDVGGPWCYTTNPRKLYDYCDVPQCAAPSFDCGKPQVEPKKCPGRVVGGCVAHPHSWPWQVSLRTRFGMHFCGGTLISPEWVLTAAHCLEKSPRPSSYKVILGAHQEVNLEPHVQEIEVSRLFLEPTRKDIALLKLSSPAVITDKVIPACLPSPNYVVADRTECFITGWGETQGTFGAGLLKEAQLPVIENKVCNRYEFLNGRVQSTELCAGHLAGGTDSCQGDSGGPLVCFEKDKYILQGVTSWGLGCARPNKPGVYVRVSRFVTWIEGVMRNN
Sequence (P00747 97-580 partner limits assumed): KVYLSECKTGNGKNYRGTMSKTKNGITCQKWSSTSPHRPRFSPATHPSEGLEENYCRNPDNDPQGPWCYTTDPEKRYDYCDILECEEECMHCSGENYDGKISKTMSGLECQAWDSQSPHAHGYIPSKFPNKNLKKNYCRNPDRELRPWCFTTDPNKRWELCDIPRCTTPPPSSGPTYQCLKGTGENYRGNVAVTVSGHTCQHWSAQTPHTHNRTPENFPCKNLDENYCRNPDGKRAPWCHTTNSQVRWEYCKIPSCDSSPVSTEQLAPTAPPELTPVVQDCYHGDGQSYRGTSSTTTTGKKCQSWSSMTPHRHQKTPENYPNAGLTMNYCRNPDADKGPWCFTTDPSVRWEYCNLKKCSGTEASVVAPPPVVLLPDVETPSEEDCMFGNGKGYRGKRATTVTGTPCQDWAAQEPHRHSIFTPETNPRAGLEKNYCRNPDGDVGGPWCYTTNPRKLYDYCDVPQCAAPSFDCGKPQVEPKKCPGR
Counter-ions that a name gives are not always drawn.
Property Label: Kass Plasmin

Answered examples (3):
[[record]]
molecule = "N=C(N)c1ccc(CNC(=O)[C@@H]2CCCN2C(=O)[C@@H](CC2CCCCC2)NCCC(=O)O)cc1"
property_label = "Kass Plasmin"
recorded_result = "0.11 × 10^6 (L/mole)"

[[record]]
molecule = "N=C(N)c1ccc(CCCNC(=O)[C@@H]2CCCN2C(=O)[C@@H]2NCC[C@@H]3CCCC[C@@H]32)cc1"
property_label = "Kass Plasmin"
recorded_result = "< 0.001 × 10^6 (L/mole)"

[[record]]
molecule = "N=C(N)c1ccc(CNC(=O)[C@@H]2C[C@@H]3CCCC[C@@H]3N2C(=O)[C@@H](Cc2ccccc2)NCC(=O)O)cc1 (relative stereo)"
property_label = "Kass Plasmin"
recorded_result = "0.18 × 10^6 (L/mole)"


Consider the record given below.
Incoming: Would you mind telling me what Kass Plasmin value was observed for NCc1ccc(CNC(=O)[C@@H]2CCCN2C(=O)[C@H](N)Cc2ccccc2)cc1 [Example 10, D-Phe-Pro-p-NHCH2 C6 H4 CH2 NH2.HCl] ?
Outgoing: 0.0045 × 10^6 (L/mole)
